# target: CDK4-NanoLuc fusion with CCND1 in 293T or 293 cells (Homo sapiens, UniProt P11802)
# Construct: host or cells: 293T (ATCC CRL-3216) or 293 (ATCC CRL-1573)
# Sequence (P11802 whole entry, the tested form may be a part): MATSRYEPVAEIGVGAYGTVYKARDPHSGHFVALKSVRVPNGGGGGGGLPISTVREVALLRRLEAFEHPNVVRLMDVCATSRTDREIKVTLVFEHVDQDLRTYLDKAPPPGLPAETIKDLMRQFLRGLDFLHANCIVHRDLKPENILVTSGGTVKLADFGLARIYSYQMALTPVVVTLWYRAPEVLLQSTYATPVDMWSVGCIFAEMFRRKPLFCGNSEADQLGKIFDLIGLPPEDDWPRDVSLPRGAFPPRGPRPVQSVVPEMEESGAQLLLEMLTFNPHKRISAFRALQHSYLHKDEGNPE
# Sequence (P24385 whole entry partner, the tested form may be a part): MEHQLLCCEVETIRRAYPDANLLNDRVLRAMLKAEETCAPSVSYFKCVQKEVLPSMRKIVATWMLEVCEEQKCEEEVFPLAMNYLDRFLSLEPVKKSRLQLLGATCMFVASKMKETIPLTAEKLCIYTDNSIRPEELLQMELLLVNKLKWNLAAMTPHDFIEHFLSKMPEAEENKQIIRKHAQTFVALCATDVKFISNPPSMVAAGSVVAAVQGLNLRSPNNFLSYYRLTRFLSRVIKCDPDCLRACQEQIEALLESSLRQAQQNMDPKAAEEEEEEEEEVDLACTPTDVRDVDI
# methodDescription: NanoBRET Target Engagement (TE) Intracellular Kinase Assay, CDK4/CCND1
# Assay type: cell-based
# setupConditions: NanoBRET TE intracellular kinase assay, 2-hour incubation, read-out: NanoBRET-CDK4/D1 IC50
valueKind: IC50

Lookup result for CC(C)NC(=O)O[C@@H]1CC[C@H](c2cc(NC(=O)c3cnn(-c4cccc(O)c4C=O)c3)n[nH]2)C1 ; measured IC50: 5.46 µM

Value of measured IC50 for the entry O=Cc1c(O)cccc1OCC(=O)Nc1cc([C@H]2CC[C@@H](OC(=O)NC3CCC3)C2)[nH]n1 : 9.8 µM

In plain terms, CC(C)NC(=O)O[C@@H]1CC[C@H](c2cc(NC(=O)[C@@H](C)Oc3cccc(O)c3C=O)n[nH]2)C1 has a documented IC50 of 4.92 µM

Consider Cc1cc(C(=O)Nc2cc([C@H]3CC[C@@H](OC(=O)NC(C)C)C3)[nH]n2)cc(C=O)c1O . Its measured IC50 is 1.82 µM

compound COc1cc(O)c(C=O)c(OCC(=O)Nc2cc([C@H]3CC[C@@H](OC(=O)NC4COC4)C3)[nH]n2)c1 , IC50 observed: > 10 µM

Continuing:
IC50 reported for this compound COc1cc(O)c(C=O)c(OCC(=O)Nc2cc([C@H]3CC[C@@H](OC(=O)NCCCC#N)C3)[nH]n2)c1 : > 10 µM

// IC50 lookup, compound = COc1cc(O)c(C=O)c(OCC(=O)Nc2cc([C@H]3CC[C@@H](OC(=O)N4CCC4(C)C)C3)[nH]n2)c1 , result: 0.846 µM
